# Target entity: human RAF1 (Homo sapiens (Human), UniProt P04049)
# Sequence (P04049 whole entry): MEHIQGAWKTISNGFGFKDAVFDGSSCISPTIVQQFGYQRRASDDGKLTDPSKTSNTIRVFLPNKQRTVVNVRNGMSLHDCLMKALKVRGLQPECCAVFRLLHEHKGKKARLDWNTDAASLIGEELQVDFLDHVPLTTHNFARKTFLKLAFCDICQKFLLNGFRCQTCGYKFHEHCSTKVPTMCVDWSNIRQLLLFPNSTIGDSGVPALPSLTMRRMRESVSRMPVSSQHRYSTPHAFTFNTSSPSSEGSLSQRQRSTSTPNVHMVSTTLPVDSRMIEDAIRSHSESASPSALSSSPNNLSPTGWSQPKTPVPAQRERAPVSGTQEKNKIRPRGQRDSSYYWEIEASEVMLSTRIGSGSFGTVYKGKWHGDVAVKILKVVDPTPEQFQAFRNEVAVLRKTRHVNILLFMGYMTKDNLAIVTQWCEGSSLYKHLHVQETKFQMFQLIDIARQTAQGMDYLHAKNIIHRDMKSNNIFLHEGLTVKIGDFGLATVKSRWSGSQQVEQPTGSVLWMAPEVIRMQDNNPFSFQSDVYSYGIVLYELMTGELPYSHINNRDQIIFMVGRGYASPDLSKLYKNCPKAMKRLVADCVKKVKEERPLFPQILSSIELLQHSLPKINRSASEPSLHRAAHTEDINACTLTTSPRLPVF
# Method description: Protein kinase assay (radiometric 33P-ATP, MEK1 (K97R) substrate), RAF-1
# Assay type: biochemical
# Assay conditions: human MEK1 (K97R) substrate 3 micromolar, ATP 10 micromolar; 10-dose, 3-fold serial dilution starting at 10 micromolar; read-out: RAF-1 IC50
pIC50: −log10 of the molar value.
Experimental readout: pIC50

The examples below pair each entry with its known result.
# Molecule, Measured result
rows = [
    ("Cc1ccc(NC(=O)N2CC[C@@H](CC(F)(F)F)C2)cc1-c1cc(-c2cscn2)nc(N2CCOCC2)c1", "8.00 to 9.00"),
    ("Cc1ccc(NC(=O)N2CC[C@@H](CC(F)(F)F)C2)cc1-c1cc(C2=CCN(C)CC2)nc(N2CCOCC2)c1", "7.00 to 8.00"),
    ("Cc1ccc(NC(=O)N2CC[C@@H](CC(F)(F)F)C2)cc1-c1cc(C(=O)N2CC(C)(O)C2)nc(N2CCOCC2)c1", "> 9.00"),
    ("Cc1ccc(NC(=O)N2CC[C@@H](CC(F)(F)F)C2)cc1-c1cc(-c2ccnn2C)nc(N2CCOCC2)c1", "> 9.00"),
]

Kindly consider the entry below.
Input: Quote pIC50 with test system human RAF1 (Homo sapiens (Human), UniProt P04049) for Cc1ccc(NC(=O)N2CC[C@@H](CC(F)(F)F)C2)cc1-c1cc(CCCO)nc(N2CCOCC2)c1
Output: > 9.00

* * *

# Target entity: human RAF1 (Homo sapiens (Human), UniProt P04049)
# Method description: Protein kinase assay (radiometric 33P-ATP, MEK1 (K97R) substrate), RAF-1
# Assay type: biochemical
Experimental readout: IC50

Input: Answer with the recorded IC50 for the compound listed here: Cc1ccc(NC(=O)N2CC[C@@H](CC(F)(F)F)C2)cc1-c1cc(C(=O)NC[C@@H](C)O)nc(N2CCOCC2)c1
Output: 1 to 10 nM

* * *

# Target entity: human RAF1 (Homo sapiens (Human), UniProt P04049)
# Method description: Protein kinase assay (radiometric 33P-ATP, MEK1 (K97R) substrate), RAF-1
# Type: biochemical
# Assay conditions: human MEK1 (K97R) substrate 3 micromolar, ATP 10 micromolar; 10-dose, 3-fold serial dilution starting at 10 micromolar; read-out: RAF-1 IC50
Experimental readout: IC50

The examples below pair each entry with its known result.
# Compound, Target entity, IC50
measured = [
    ("Cc1ccc(NC(=O)N2CC[C@@H](CC(F)(F)F)C2)cc1-c1cc(-c2cc(N)n(C)n2)nc(N2CCOCC2)c1 [Example 44]", "human RAF1 (Homo sapiens (Human), UniProt P04049)", "1 to 10 nM"),
    ("Cc1ccc(NC(=O)N2CC[C@@H](CC(F)(F)F)C2)cc1-c1cc(C(=O)N2CC(O)C2)nc(N2CCOCC2)c1 [Example 20]", "human RAF1 (Homo sapiens (Human), UniProt P04049)", "< 1 nM"),
    ("Cc1cc(F)c(NC(=O)N2CC=C(C(F)(F)F)C2)cc1-c1cc(-c2cnn(C)c2)nc(N2CCOCC2)c1 [Example 69]", "human RAF1 (Homo sapiens (Human), UniProt P04049)", "< 1 nM"),
    ("Cc1cc(-c2cc(-c3cc(NC(=O)N4CC[C@@H](CC(F)(F)F)C4)ccc3C)cc(N3CCOCC3)n2)n(C)n1 [Example 50]", "human RAF1 (Homo sapiens (Human), UniProt P04049)", "1 to 10 nM"),
    ("Cc1ccc(NC(=O)N2CC[C@@H](CC(F)(F)F)C2)cc1-c1cc(-c2ccn(C)n2)nc(N2CCOCC2)c1 [Example 36]", "human RAF1 (Homo sapiens (Human), UniProt P04049)", "< 1 nM"),
]

Input: Answer with the recorded IC50 for the compound listed here: Cc1cc(F)c(NC(=O)N2CC[C@@H](C(F)(F)F)C2)cc1-c1cc(-c2cnn(C)c2)nc(N2CCOCC2)c1 [Example 75]
Output: < 1 nM

Input: Answer with the recorded IC50 for the compound listed here: Cc1ccc(NC(=O)N2CC[C@@H](CC(F)(F)F)C2)cc1-c1cc(C#C[C@@H](C)O)nc(N2CCOCC2)c1 [Example 11]
Output: 1 to 10 nM

* * *

Each entry below carries its reported pIC50.
# Target entity: human RAF1 (Homo sapiens (Human), UniProt P04049)
# Method description: Protein kinase assay (radiometric 33P-ATP, MEK1 (K97R) substrate), RAF-1
# Type: biochemical
# Assay conditions: human MEK1 (K97R) substrate 3 micromolar, ATP 10 micromolar; 10-dose, 3-fold serial dilution starting at 10 micromolar; read-out: RAF-1 IC50
pIC50: −log10 of the molar value.

The examples below pair each entry with its known result.
# Compound, pIC50
rows = [
    ("Cc1ccc(NC(=O)N2CC[C@@H](CC(F)(F)F)C2)cc1-c1cc(-c2cnc(O)o2)nc(N2CCOCC2)c1 [Example 26]", "> 9.00"),
    ("Cc1ccc(NC(=O)N2CC[C@@H](CC(F)(F)F)C2)cc1-c1cc(/C=C/CO)nc(N2CCOCC2)c1 [Example 23]", "> 9.00"),
    ("Cc1ccc(NC(=O)N2CC[C@@H](CC(F)(F)F)C2)cc1-c1cc(-c2ccnn2CCO)nc(N2CCOCC2)c1 [Example 59]", "8.00 to 9.00"),
]

Input: Answer with the recorded pIC50 for the compound listed here: COc1cc(-c2cc(-c3cc(NC(=O)N4CC[C@@H](CC(F)(F)F)C4)ccc3C)cc(N3CCOCC3)n2)ccn1 [Example 25]
Output: > 9.00

Input: Answer with the recorded pIC50 for the compound listed here: Cc1cc(F)c(NC(=O)N2CC=C(C(F)(F)C(F)(F)F)C2)cc1-c1cc(-c2cnn(C)c2)nc(N2CCOCC2)c1 [Example 79]
Output: 8.00 to 9.00

Input: Answer with the recorded pIC50 for the compound listed here: Cc1ccc(NC(=O)N2CC[C@@H](CC(F)(F)F)C2)cc1-c1cc(C(=O)N(C)CCO)nc(N2CCOCC2)c1 [Example 18]
Output: > 9.00

Input: Answer with the recorded pIC50 for the compound listed here: Cc1ccc(NC(=O)N2CC[C@@H](CC(F)(F)F)C2)cc1-c1cc(-c2cn(C)nn2)nc(N2CCOCC2)c1 [Example 14]
Output: 8.00 to 9.00

* * *

# Target entity: human RAF1 (Homo sapiens (Human), UniProt P04049)
# Method description: Protein kinase assay (radiometric 33P-ATP, MEK1 (K97R) substrate), RAF-1
# Type: biochemical
# Assay conditions: human MEK1 (K97R) substrate 3 micromolar, ATP 10 micromolar; 10-dose, 3-fold serial dilution starting at 10 micromolar; read-out: RAF-1 IC50
pIC50: −log10 of the molar value. Structures can show the parent of a compound that is named as a salt.
Experimental readout: pIC50

# Compound, pIC50
measured = [
    ("Cc1cc(F)c(NC(=O)N2CC[C@H](C(F)(F)C(F)(F)F)C2)cc1-c1cc(-c2cnn(C)c2)nc(N2CCOCC2)c1 (single isomer, unassigned) [Example 81]", "8.00 to 9.00"),
    ("Cc1ccc(NC(=O)N2CC[C@@H](CC(F)(F)F)C2)cc1-c1cc(CC[C@@H](C)O)nc(N2CCOCC2)c1 [Example 12]", "> 9.00"),
    ("Cc1ccc(NC(=O)N2CCO[C@@H](C(F)(F)F)C2)cc1-c1cc(-c2ccnn2C)nc(N2CCOCC2)c1 [Example 65]", "> 9.00"),
    ("Cc1ccc(NC(=O)N2CC[C@@H](CC(F)(F)F)C2)cc1-c1cc(C2CCN(C)CC2)nc(N2CCOCC2)c1 [Example 39, formate]", "8.00 to 9.00"),
]

Input: Quote pIC50 with test system human RAF1 (Homo sapiens (Human), UniProt P04049) for Cc1ccc(NC(=O)N2CC[C@@H](CC(F)(F)F)C2)cc1-c1cc(C2CCCNC2)nc(N2CCOCC2)c1 (stereo partly shown) [Example 28]
Output: 7.00 to 8.00

Input: Quote pIC50 with test system human RAF1 (Homo sapiens (Human), UniProt P04049) for Cc1cc(F)c(NC(=O)N2CC=C(C(F)(F)F)C2)cc1-c1cc(-c2ccnn2C)nc(N2CCOCC2)c1 [Example 73]
Output: > 9.00

Input: Quote pIC50 with test system human RAF1 (Homo sapiens (Human), UniProt P04049) for Cc1ccc(NC(=O)N2CC[C@@H](CC(F)(F)F)C2)cc1-c1cc(-c2cncn2C)nc(N2CCOCC2)c1 [Example 16]
Output: 8.00 to 9.00

Input: Quote pIC50 with test system human RAF1 (Homo sapiens (Human), UniProt P04049) for Cc1cc(F)c(NC(=O)N2CC[C@H](C(C)(C)C)C2)cc1-c1cc(-c2cnn(C)c2)nc(N2CCOCC2)c1 [Example 83]
Output: 8.00 to 9.00

Input: Quote pIC50 with test system human RAF1 (Homo sapiens (Human), UniProt P04049) for Cc1cc(-c2cc(NC(=O)N3CC[C@@H](CC(F)(F)F)C3)c(F)cc2C)cc(N2CCOCC2)n1 [Example 70]
Output: > 9.00

Input: Quote pIC50 with test system human RAF1 (Homo sapiens (Human), UniProt P04049) for Cc1ccc(NC(=O)N2CC[C@@H](CC(F)(F)F)C2)cc1-c1cc(CCO)nc(N2CCOCC2)c1 [Example 32]
Output: 8.00 to 9.00
